Biological target: Histidine tagged HIF-2α protein containing PAS-B domain (240-350) (Homo sapiens)
Construct: HIF-2α protein containing PAS-B domain (240-350); made in house
Sequence (Q99814 240-350): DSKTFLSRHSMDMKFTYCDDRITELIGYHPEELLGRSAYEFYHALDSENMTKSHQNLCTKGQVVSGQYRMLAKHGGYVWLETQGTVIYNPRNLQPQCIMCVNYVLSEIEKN
Test: HIF-2α Scintillation Proximity Assay (SPA) binding assay
Conditions: Table 1; 50 nM HIF-2α protein, 25 nM 3H-tracer
# maps each entry to its IC50

Example results:
molecule	IC50
OCc1cc(N2CCCc3cc(F)cc(F)c32)ccc1C(F)(F)F [Example 63]	> 1000 nM
O=S(=O)(c1ccc(N2C[C@@H](O)Cc3cc(F)cc(F)c32)c2c1[C@H](O)[C@H](F)C2)C(F)(F)F [Example 66]	> 1000 nM
CS(=O)(=O)c1ccc([C@H]2CCCc3cc(F)cc(F)c32)c2c1[C@H](O)[C@H](F)C2 [Example 4]	< 100 nM
N#Cc1c(Cl)ccc(N2CCCc3cc(F)cc(F)c32)c1C(F)F [Example 71]	> 1000 nM
N#Cc1c(S(=O)(=O)C(F)(F)F)ccc(N2CCCc3cc(F)cc(F)c32)c1Cl [Example 13]	100 to 1000 nM
O=S(=O)(c1ccc(N2CCCc3cc(F)cc(F)c32)c2c1C(F)CC2)C(F)(F)F (stereo not shown) [Example 49]	100 to 1000 nM
CS(=O)(=O)c1ccc(N2CCCc3cc(F)cc(Cl)c32)c2c1[C@H](O)[C@H](F)C2 [Example 47]	100 to 1000 nM
O=[N+]([O-])c1cc(C(O)C(F)(F)F)ccc1N1CCCc2cc(F)cc(F)c21 (stereo not shown) [Example 84]	> 1000 nM
O=Cc1c(S(=O)(=O)C(F)(F)F)ccc(N2CCCc3cc(F)cc(F)c32)c1Cl [Example 69]	100 to 1000 nM
CS(=O)(=O)c1ccc([C@H]2CCCc3cc(F)cc(F)c32)c2c1[C@H](O)C(F)(F)C2 [Example 93]	< 100 nM

[in] Give its IC50 value. Item: CS(=O)(=O)c1ccc([C@@H]2CCCc3cc(F)cc(C#N)c32)c2c1[C@H](O)[C@@H](F)CC2 [Example 105]
[out] > 1000 nM

[in] Give its IC50 value. Item: O=S(=O)(c1ccc(C2CCCc3cc(F)cc(F)c32)c2ccncc12)C(F)(F)F (stereo not shown) [Example 25]
[out] > 1000 nM

[in] Give its IC50 value. Item: O=[N+]([O-])c1cc(S(=O)(=O)C(F)(F)F)ccc1N1CCCc2cc(F)ccc21 [Example 62]
[out] > 1000 nM

[in] Give its IC50 value. Item: COC(=O)c1cc(N2CCCc3cc(F)cc(F)c32)ccc1S(=O)(=O)C(F)(F)F [Example 77]
[out] > 1000 nM

[in] Give its IC50 value. Item: N#Cc1cc(F)cc2c1[C@H](c1ccc(C(F)(F)F)c3c1OC(F)(F)[C@H]3O)CCC2 [Example 108]
[out] > 1000 nM

[in] Give its IC50 value. Item: O=Cc1c(S(=O)(=O)C(F)(F)F)ccc(N2CCCc3cc(F)cc(F)c32)c1Cl [Example 68]
[out] > 1000 nM
